TESTED_SYSTEM: mouse VISTA (mVISTA) (Mus musculus, UniProt Q9D659)
Construct: expressed in transfected cells; host or cells: Human embryonic kidney 293T cells
Sequence (Q9D659 33-308): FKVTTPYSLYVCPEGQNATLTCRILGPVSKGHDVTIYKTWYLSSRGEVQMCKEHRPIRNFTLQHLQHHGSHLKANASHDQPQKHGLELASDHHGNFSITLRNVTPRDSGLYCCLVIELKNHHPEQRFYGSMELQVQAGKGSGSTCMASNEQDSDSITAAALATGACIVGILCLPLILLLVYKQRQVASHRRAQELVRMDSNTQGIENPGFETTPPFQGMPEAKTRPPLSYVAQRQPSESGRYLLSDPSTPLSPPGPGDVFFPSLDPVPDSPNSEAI
METHOD_DESCRIPTION: Cell-Based Binding High-Content Assay For mVISTA (HC CBA mVISTA)
CONDITIONS_USED: cell-based binding high-content assay, mVISTA; the 16th table; read-out: HC CBA mVISTA IC50
Positions of bridges follow the written chain, without caps; N, C: chain ends. Non-standard residues stand in square brackets, D forms with d. Residues, ends and D or L forms follow the SMILES beside them. 2Nal = N[C@@H](Cc1ccc2ccccc2c1)C(=O)O; Tic = O=C(O)[C@@H]1Cc2ccccc2CN1; Cit = NC(=O)NCCC[C@H](N)C(=O)O; Ahp(2) = CCCCC[C@H](N)C(=O)O; NHexGly = CCCCCCNCC(=O)O; Nle = CCCC[C@H](N)C(=O)O
MEASUREMENT_TYPE: IC50 (nM)
Give the quantity in nM, number only.

Entry CCCCCCN1CC(=O)N[C@@H](Cc2ccc(O)cc2)C(=O)N[C@@H](CCCC)C(=O)N[C@@H](CC(N)=O)C(=O)N[C@@H](CCCNC(N)=O)C(=O)N2Cc3ccccc3C[C@H]2C(=O)N[C@@H](CCCCC)C(=O)N2CCC[C@H]2C(=O)N[C@@H](C(C)C)C(=O)N[C@@H](CC(=O)O)C(=O)N[C@H](C(=O)NCC(N)=O)CSCC(=O)N[C@@H](Cc2ccc3ccccc3c2)C(=O)N[C@@H](Cc2ccc(O)cc2)C(=O)N[C@@H](CC(=O)O)C1=O [Ex 1305] ({CH2CO}-[2Nal]YD[NHexGly]Y[Nle]N[Cit][Tic][Ahp(2)]PVDCG-NH2; thioether N-14) ; IC50 = 10.3

* * *

TESTED_SYSTEM: mouse VISTA (mVISTA) (Mus musculus)
Construct: expressed in transfected cells; host or cells: Human embryonic kidney 293T cells
METHOD_DESCRIPTION: Cell-Based Binding High-Content Assay For mVISTA (HC CBA mVISTA)
CONDITIONS_USED: 293T cells expressing mouse VISTA; competition with biotinylated peptide (2 nM); read-out: HC CBA mVISTA IC50
Positions of bridges follow the written chain, without caps; N, C: chain ends. Non-standard residues stand in square brackets, D forms with d. Residues, ends and D or L forms follow the SMILES beside them. Ahp(2) = CCCCC[C@H](N)C(=O)O; NHexGly = CCCCCCNCC(=O)O; Nva = CCC[C@H](N)C(=O)O
MEASUREMENT_TYPE: IC50 (µM)
Write the number in µM without appending the unit.

IC50 on mouse VISTA (mVISTA) (Mus musculus) for CCCCCCN1CC(=O)N[C@@H](Cc2ccc(O)cc2)C(=O)N[C@@H](CCCNC(=N)N)C(=O)N[C@@H](CC(N)=O)C(=O)N[C@@H](CCCNC(=N)N)C(=O)N[C@@H](CC(C)C)C(=O)N[C@@H](CCCCC)C(=O)N2CCC[C@H]2C(=O)N[C@@H](C(C)C)C(=O)N[C@@H](Cc2c[nH]c3ccccc23)C(=O)N[C@H](C(=O)NCC(=O)O)CSCC(=O)N[C@@H](Cc2ccccc2)C(=O)N[C@@H](Cc2ccc(O)cc2)C(=O)N[C@@H](CC(=O)O)C1=O [Example 1069] ({CH2CO}-FYD[NHexGly]YRNRL[Ahp(2)]PVWCG-OH; thioether N-14) is 0.0483

Bench note, mouse VISTA (mVISTA) (Mus musculus): CCCCCCN1CC(=O)N[C@@H](Cc2ccc(O)cc2)C(=O)N[C@@H](CCC)C(=O)NCC(=O)N[C@@H](CCCNC(=N)N)C(=O)N[C@@H](CC(C)C)C(=O)N[C@@H](CCCCC)C(=O)N2CCC[C@H]2C(=O)N[C@@H](C(C)C)C(=O)N[C@@H](CO)C(=O)N[C@H](C(=O)NCC(N)=O)CSCC(=O)N[C@@H](Cc2ccccc2)C(=O)N[C@@H](Cc2ccc(O)cc2)C(=O)N[C@@H](CC(=O)O)C1=O [Example 1060] ({CH2CO}-FYD[NHexGly]Y[Nva]GRL[Ahp(2)]PVSCG-NH2; thioether N-14) , IC50 reads 0.0299

* * *

TESTED_SYSTEM: mouse VISTA (mVISTA) (Mus musculus)
Construct: expressed in transfected cells; host or cells: Human embryonic kidney 293T cells
METHOD_DESCRIPTION: Cell-Based Binding High-Content Assay For mVISTA (HC CBA mVISTA)
CONDITIONS_USED: 293T cells expressing mouse VISTA; competition with biotinylated peptide (2 nM); read-out: HC CBA mVISTA IC50
Positions of bridges follow the written chain, without caps; N, C: chain ends. Non-standard residues stand in square brackets, D forms with d. Residues, ends and D or L forms follow the SMILES beside them. Ahp(2) = CCCCC[C@H](N)C(=O)O; NHexGly = CCCCCCNCC(=O)O; Dab = NCC[C@H](N)C(=O)O
Form field: pIC50 (one value per entry).
The value called pIC50 is obtained by taking minus log10 of the concentration in mol/L.

1) CCCCCCN1CC(=O)N[C@@H](Cc2ccc(O)cc2)C(=O)N[C@@H](CCCCC)C(=O)N[C@@H](CC(N)=O)C(=O)N[C@@H](CCCNC(=N)N)C(=O)N[C@@H](C)C(=O)N[C@@H](CCCCC)C(=O)N2CCC[C@H]2C(=O)N[C@@H](C(C)C)C(=O)N[C@@H](CO)C(=O)N[C@H](C(=O)NCC(=O)O)CSCC(=O)N[C@@H](Cc2ccccc2)C(=O)N[C@@H](Cc2ccc(O)cc2)C(=O)N[C@@H](CC(=O)O)C1=O [Example 1090] ({CH2CO}-FYD[NHexGly]Y[Ahp(2)]NRA[Ahp(2)]PVSCG-OH; thioether N-14) :: 8.10

Please look at the following compound next.
Form: item CCCCCCN1CC(=O)N[C@@H](Cc2ccc(O)cc2)C(=O)N[C@@H](CCCCC)C(=O)N[C@@H](CC(N)=O)C(=O)N[C@@H](CCN)C(=O)N[C@@H](CC(C)C)C(=O)N[C@@H](CCCCC)C(=O)N2CCC[C@H]2C(=O)N[C@@H](C(C)C)C(=O)N[C@@H](CO)C(=O)N[C@H](C(=O)NCC(N)=O)CSCC(=O)N[C@@H](Cc2ccccc2)C(=O)N[C@@H](Cc2ccc(O)cc2)C(=O)N[C@@H](CC(=O)O)C1=O [Example 1037] ({CH2CO}-FYD[NHexGly]Y[Ahp(2)]N[Dab]L[Ahp(2)]PVSCG-NH2; thioether N-14) ; test system mouse VISTA (mVISTA) (Mus musculus); pIC50: 7.44

* * *

The compounds listed here are annotated with their IC50.
TESTED_SYSTEM: mouse VISTA (mVISTA) (Mus musculus)
Construct: expressed in transfected cells; host or cells: Human embryonic kidney 293T cells
METHOD_DESCRIPTION: Cell-Based Binding High-Content Assay For mVISTA (HC CBA mVISTA)
CONDITIONS_USED: 293T cells expressing mouse VISTA; competition with biotinylated peptide (2 nM); read-out: CBA mVISTA IC50
Positions of bridges follow the written chain, without caps; N, C: chain ends. Non-standard residues stand in square brackets, D forms with d. Residues, ends and D or L forms follow the SMILES beside them. Ahp(2) = CCCCC[C@H](N)C(=O)O; NMeNle = CCCC[C@H](NC)C(=O)O; NHexGly = CCCCCCNCC(=O)O

// compound CCCCCCN1CC(=O)N[C@@H](Cc2ccc(O)cc2)C(=O)N[C@@H](CC(C)C)C(=O)NCC(=O)N[C@@H](CCCNC(=N)N)C(=O)N(C)[C@@H](CCCC)C(=O)N[C@@H](CCCCC)C(=O)N2CCC[C@H]2C(=O)N[C@@H](C(C)C)C(=O)N[C@@H](CO)C(=O)N[C@H](C(=O)NCC(N)=O)CSCC(=O)N[C@@H](Cc2ccccc2)C(=O)N[C@@H](Cc2ccc(O)cc2)C(=O)N[C@@H](CC(=O)O)C1=O [Example 1081] ({CH2CO}-FYD[NHexGly]YLGR[NMeNle][Ahp(2)]PVSCG-NH2; thioether N-14) , assay mouse VISTA (mVISTA) (Mus musculus), IC50 value: 4.6 nM

CCCCCCN1CC(=O)N[C@@H](Cc2ccc(O)cc2)C(=O)N[C@@H](CCCCC)C(=O)NCC(=O)N[C@@H](CCCNC(=N)N)C(=O)N(C)[C@@H](CCCC)C(=O)N[C@@H](CCCCC)C(=O)N2CCC[C@H]2C(=O)N[C@@H](C(C)C)C(=O)N[C@@H](CO)C(=O)N[C@H](C(=O)NCC(N)=O)CSCC(=O)N[C@@H](Cc2ccccc2)C(=O)N[C@@H](Cc2ccc(O)cc2)C(=O)N[C@@H](CC(=O)O)C1=O [Example 1079] ({CH2CO}-FYD[NHexGly]Y[Ahp(2)]GR[NMeNle][Ahp(2)]PVSCG-NH2; thioether N-14) tested on mouse VISTA (mVISTA) (Mus musculus) gave IC50: 24.6 nM
